Molecular target: T1, recombinant his-tag human LAG3-ECD protein (human, UniProt P18627 23-450)
T1 construct: extracellular domain; not shown: his tag
T1 sequence (looked up): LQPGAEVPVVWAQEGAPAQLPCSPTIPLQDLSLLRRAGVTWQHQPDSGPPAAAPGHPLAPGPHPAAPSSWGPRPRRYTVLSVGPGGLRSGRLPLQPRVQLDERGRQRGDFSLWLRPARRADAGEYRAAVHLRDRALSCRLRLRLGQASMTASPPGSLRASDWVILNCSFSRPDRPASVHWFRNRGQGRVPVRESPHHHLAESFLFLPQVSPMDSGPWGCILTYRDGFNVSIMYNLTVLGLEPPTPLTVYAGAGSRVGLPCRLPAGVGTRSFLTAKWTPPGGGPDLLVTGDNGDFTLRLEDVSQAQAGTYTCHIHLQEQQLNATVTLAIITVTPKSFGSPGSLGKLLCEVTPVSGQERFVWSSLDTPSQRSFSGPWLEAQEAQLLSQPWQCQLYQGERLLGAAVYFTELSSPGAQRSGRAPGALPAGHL
Assay: SPR Biacore T200, antibody captured by anti-human Fc, LAG3-ECD-his injected
measurement_kind: koff (s⁻¹)
Give just the number in s⁻¹; leave the unit off.

Exercise: Recorded koff for NLAG3-HDB169-S136 (antibody, human IgG1, V domains shown, Short label tied by its unique suffix) VH: QVQLVQSGAEVKKPGSSVKVSCKASGGTFSSYAISWVRQAPGQGLEWMGGIIPIFGTANYAQKFQGRVTITADESTSTAYMELSSLRSEDTAVYYCTRGQDSTWYSSFDYWGQGTLVTVSS VL: AIRMTQSPSSLSASVGDRVTITCRASQSISSYLNWYQQKPGKAPNLLIYAVSTLQSGVPSRFSGSGSGTVFTLTISSLQPEDFATYFCQQGNSFPLTFGGGTKVEIKR , please?
Key: 8.27e-05

Exercise: Recorded koff for NLAG3-HDB169-S87 (antibody, human IgG1, V domains shown, Short label tied by its unique suffix) VH: QVQLVQSGAEVKKPGSSVKVSCKASGGTFSSYAISWVRQAPGQGLEWMGGIIPIFGTANYAQKFQGRVTITADESTSTAYMELSSLRSEDTAVYYCAKDIRWYYGMDVWGQGTTVTVSS VL: DIVMTQSPSSVSAFVGDRVTITCRASQGVSSWLAWFQQKPGKAPKLLIYAASTLQSGVPSRFSGRGYGTEFTLTISSLQPEDLATYYCQQVKSFPLTFGGGTKVDIKR , please?
Key: 2.33e-06

Exercise: Recorded koff for NLAG3-HDB169-T99 (antibody, human IgG1, V domains shown, Short label tied by its unique suffix) VH: QVQLVQSGAEVKKPGSSVKVSCKASGGTFSSYAISWVRQAPGQGLEWMGGIIPIFGTANYAQKFQGRVTITADESTSTAYMELSSLRSEDTAVYYCVRDLQDWNYGGAAYWGQGTLVTVSS VL: VIWMTQSPSSLSASVGDSVTITCQASRDISNSLSWHQQKPGKAPKLLIYAASSLQSGVPSRFSGSGSGTDFTLTISSLQPEDFATYYCQQTKSFPLTFGGGTKVEIKR , please?
Key: 0.00017

Exercise: Recorded koff for NLAG3-HDB169-S119 (antibody, human IgG1, V domains shown, Short label tied by its unique suffix) VH: QVQLVQSGAEVKKPGSSVKVSCKASGGTFSSYAISWVRQAPGQGLEWMGGIIPIFGTANYAQKFQGRVTITADESTSTAYMELSSLRSEDTAVYYCAASTLRVPNPPYWGQGTLVTVSS VL: EIVLTQSPGTLSLSPGERATLSCRASQSVSSYLAWYQQKPGQAPRLLIYGISSRATGIPDRFSGSGSGTDFTLTISSLQPEDFATYYCQQANNFPLTFGGGTKLEIKR , please?
Key: 0.000149

Exercise: Recorded koff for NLAG3-HDB169-S27 (antibody, human IgG1, V domains shown, Short label tied by its unique suffix) VH: QVQLVQSGAEVKKPGSSVKVSCKASGGTFSSYAISWVRQAPGQGLEWMGGIIPIFGTANYAQKFQGRVTITADESTSTAYMELSSLRSEDTAVYYCTTAAPGSYYLVFHYWGQGTLVTVSS VL: DIQLTQSPSSLSASVGDRVTITCRASQTISSHLNWYQQKPGKAPKVLIYAASSLQSGVPSRFSGSGSGTEFTLTISSLQPDDFATYYCQQGNSFPFTFGPGTKVEIKR , please?
Key: 0.00011

Exercise: Recorded koff for NLAG3-HDB169-S31 (antibody, human IgG1, V domains shown, Short label tied by its unique suffix) VH: QVQLVQSGAEVKKPGSSVKVSCKASGGTFSSYAISWVRQAPGQGLEWMGGIIPIFGTANYAQKFQGRVTITADESTSTAYMELSSLRSEDTAVYYCARDAGPVGYYGMDVWGQGTTVTVSS VL: AIRMTQSPSTLSASVGDRVTITCRASQGIAGWLAWYQQKPGKAPKLLIYAASSLQSGVPSRFSGSASGTDFTLTISNLQPEDFATYYCQQAKSFPLTFGGGTKVEIKR , please?
Key: 6.25e-05

Exercise: Recorded koff for NLAG3-HDB169-S120 (antibody, human IgG1, V domains shown, Short label tied by its unique suffix) VH: QVQLVQSGAEVKKPGSSVKVSCKASGGTFSSYAISWVRQAPGQGLEWMGGIIPIFGTANYAQKFQGRVTITADESTSTAYMELSSLRSEDTAVYYCARSGDRYDFWSGYWGQGTLVTVSS VL: EIVLTQSPSSVSASVGDRVTITCRASRGISSWLAWYQQKPGKAPKLLIYAASTLQSGVPSRFSGSGSGTDFTLTISSLQPEDFATYYCQQAKSFPLTFGGGTKVEIKR , please?
Key: 0.00264

Exercise: Recorded koff for NLAG3-HDB169-S128 (antibody, human IgG1, V domains shown, Short label tied by its unique suffix) VH: QVQLVQSGAEVKKPGSSVKVSCKASGGTFSSYAISWVRQAPGQGLEWMGGIIPIFGTANYAQKFQGRVTITADESTSTAYMELSSLRSEDTAVYYCARDAGPVGYYGMDVWGQGTMVTVSS VL: AIQMTQSPSSLSASVGDRVTITCRASQGISSWLAWYQQKPGKAPKLLIYAASSLQSGVPSRFSGSGSGTDFTLTISRLQPEDFATYYCQQAKSFPLTFGGGTKVEIKR , please?
Key: 0.000817

Exercise: Recorded koff for NLAG3-HDB169-S24 (antibody, human IgG1, V domains shown, Short label tied by its unique suffix) VH: QVQLVQSGAEVKKPGSSVKVSCKASGGTFSSYAISWVRQAPGQGLEWMGGIIPIFGTANYAQKFQGRVTITADESTSTAYMELSSLRSEDTAVYYCTREPHFDYWGQGTLVTVSS VL: EIVMTQSPSSLSASVGDRVTITCQASQDISNYLNWYQQKPGKAPKLLIYDASNLETGVPSRFSGSGSGTEFTLTISSLRPEDFATYFCQQADSFPITFGQGTRLEIKR , please?
Key: 0.012
